Reference source for all entries: paper PMC6212790

# studyTarget: T1, Rok-C114-185 K116A (Bacillus subtilis subsp. subtilis str. …, UniProt O34857 114-185, K116A)
# T1 sequence: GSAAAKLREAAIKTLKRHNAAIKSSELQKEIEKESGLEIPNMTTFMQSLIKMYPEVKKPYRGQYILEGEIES
# assayInfo: ITC; ITC: sodium phosphate buffer, 200 mM NaCl, pH 6, 277 K, 50 uM protein in cell titrated with 750 uM Seq1 DNA; PBM: buffer not stated
# experimentalContext: protein: recombinant; tags: C-terminal His6; blunt, self-complementary 18 bp
readout: pKd
When answering, recall that pKd equals minus log10 of the concentration in mol/L, and write that number alone.

Problem: GET /values?readout=pKd&item= Seq1 (dsDNA) DNA 1: CTAATAACTAGTTATTAG DNA 2: CTAATAACTAGTTATTAG
Result: 4.37
